Listing: TGI of selected molecules
# Test system: OVCAR-8 ovarian
# measurement.description: NCI tumour cell line growth inhibition, 48 h

molecule	unit.of.measurement	result.comparator	TGI
COc1cc(C(=O)N[C@H]2CCc3cc(OC)c(OC)c(OC)c3-c3ccc(SC)c(=O)cc32)cc(OC)c1OC	µM	=	0.0478
CC1(C)OCC(C2OC3OC(C)(C)OC3C2c2ccccc2)O1 (stereo not given)	µM	>	100
COC(=O)CCC1(CCC(=O)OC)CCCCCCC(CCC(=O)OC)(CCC(=O)OC)C(=O)C1=O	µM	>	100
Cc1ccc(-c2c(-c3ccccc3)[nH]c(C)c2C(=O)ONC(=O)c2ccccc2)cc1	µM	=	18.5
O=C1CCCC/C1=C\c1ccc([N+](=O)[O-])cc1	µM	=	37.1

* * *

# Test system: HS 578T breast
# measurement.description: NCI tumour cell line growth inhibition, 48 h

molecule	TGI
N=c1ccc2nc3ccc(N)cc3sc-2c1	> 100 µM
C[C@H]1C2Cc3cc(O)ccc3[C@@]1(C)CCN2CCc1ccc(N)cc1	> 100 µM
CC1CN=C(Nc2cccc(F)c2)S1 (stereo unspecified)	> 100 µM
CCOC(=O)NC(Nc1cc(Cl)ccc1OC)(C(F)(F)F)C(F)(F)F	> 100 µM
CN=C(Nc1ccc(OC)c2ccccc12)SC	> 10 µM
CCc1ccc2[nH]c(O)c(C3=Nc4ccccc4C3=O)c2c1	> 100 µM

* * *

# Test system: HCC-2998 colon
# measurement.description: NCI tumour cell line growth inhibition, 48 h
Listing: TGI of selected compounds
readout.label: TGI

compound	readout.label	assay.result
CC12CCCCC1=C(F)C(F)(F)S2 (stereo unspecified)	TGI	> 86.5 µM
CC1(C)COC2C(N(Cc3ccccc3)Cc3ccccc3)C(=O)N21 (stereo unspecified)	TGI	> 100 µM
COC(=O)CCC1(CCC(=O)OC)CCCCCCC(CCC(=O)OC)(CCC(=O)OC)C(=O)C1=O	TGI	> 100 µM
N#Cc1c(=O)c2ccccc2n2ccccc12	TGI	> 100 µM
O=c1c2c(-c3ccccc3)c3ccccc3nc2cnn1-c1ccccc1	TGI	> 100 µM
Cc1cccc2oc3c(c(=O)c12)CC(O)C(C)(C)O3 (stereo unspecified)	TGI	> 100 µM

* * *

# Test system: MOLT-4 leukemia
# measurement.description: NCI tumour cell line growth inhibition, 48 h
readout.label: TGI

molecule	readout.label	assay.result
CCOC(=O)NC(Nc1cc(Cl)ccc1OC)(C(F)(F)F)C(F)(F)F	TGI	> 100 µM
CCOC(=O)c1cn2c(n1)sc1cc(OC)ccc12	TGI	> 100 µM
CCN1[C@@H](C(=O)NC23CCC(C(=O)O)(CC2)CC3)[C@H](c2cccc(Cl)c2F)[C@]2(C(=O)Nc3cc(Cl)ccc32)C12CCCCC2	TGI	> 22.9 µM
CCOc1ccc(N=C2NC(=O)C(CC(=O)Nc3ccccc3[N+](=O)[O-])S2)cc1 (stereo not given)	TGI	> 100 µM
CCOC(=O)c1sc2c(c1OC(=O)c1cc(OC)c(OC)c(OC)c1)c(=O)n(-c1ccccc1)c(=S)n2-c1ccccc1	TGI	> 100 µM

* * *

Listing: TGI of selected molecules
# Tested on: XF 498 CNS
# measurement.description: NCI tumour cell line growth inhibition, 48 h
readout.label: TGI

molecule	target.system	assay.result
COC(=O)C(=O)C(CC(=O)Nc1ccc(C)cc1)C(=O)OC (stereo not drawn)	XF 498 CNS	> 100 µM
COC(=O)C(C(=O)C(=O)Nc1ccc(C)cc1C)c1csc(-n2nc(-c3ccccc3)cc2-c2ccccc2)n1 (stereo not drawn)	XF 498 CNS	> 100 µM
O=C1c2ccccc2C(=O)C12CCc1ccccc12	XF 498 CNS	> 100 µM

* * *

# Test system: ACHN renal
# measurement.description: NCI tumour cell line growth inhibition, 48 h
Listing: TGI of selected compounds

compound	TGI
CN=C(Nc1ccc(OC)c2ccccc12)SC	> 10 µM
O=C(Nc1cccc(F)c1)c1cc2ccc(O)cc2oc1=Nc1cccc(F)c1	> 100 µM
O=c1c2c(-c3ccccc3)c3ccccc3nc2cnn1-c1ccccc1	> 100 µM
O=C(c1ccccc1)N1C(=O)N(c2ccccc2)C(=Nc2ccccc2)C1=Nc1ccccc1	> 100 µM
O=Cc1ccc(OC[C@H]2COC(=O)N2)cc1	> 100 µM
CCC1=CCN(c2cc(C)ccn2)OC1c1ccccc1 (centres undefined)	> 100 µM
Oc1ccc(/C=C/c2cccc(/C=C/c3ccc(O)c(O)c3)n2)cc1O	18.7 µM
O=C1CCCC/C1=C\c1ccc([N+](=O)[O-])cc1	68.1 µM
CCOc1cccc2c1N[S@@](=O)S2	> 100 µM

* * *

# System: HS 578T breast
# measurement.description: NCI tumour cell line growth inhibition, 48 h; in the data active = GI50 below about 0.43 µM; inactive = the rest
Outcomes: active, inactive

molecule	qualitative.label
Cc1ccc(S(=O)(=O)c2nc(-c3ccccc3)oc2S(C)(=O)=O)cc1	inactive
CCN1[C@@H](C(=O)NC23CCC(C(=O)O)(CC2)CC3)[C@H](c2cccc(Cl)c2F)[C@]2(C(=O)Nc3cc(Cl)ccc32)C12CCCCC2	inactive
COc1cc(F)ccc1-c1cc(Nc2cc(CS(C)(=N)=O)ccn2)ncc1F (configuration not stated)	active
COc1cc(OCc2cccc(-c3ccccc3)c2C)cc(OC)c1CN1CCCCC1C(=O)NCCOCCOCCN (configuration not stated)	inactive
Cn1c(=O)n(C)c2cc(CNCCNc3ccnc4cc(Cl)ccc34)ccc21	inactive
COc1cccc(CNc2ncnc3c2ncn3C2OC(CO)C(O)C2O)c1O (configuration not stated)	active
COc1ccc2c(c1)C(=O)/C(=C/c1cccc(OCC(=O)Nc3nc(C)c(C)s3)c1)O2	inactive

* * *

# Test system: RXF 393 renal
# measurement.description: NCI tumour cell line growth inhibition, 48 h

compound	TGI
CO/N=C\c1ccc2c(c1)Sc1ccccc1O2	> 100 µM
COc1cc(/C=N/N=C(\N)NO)cc(OC)c1OC	> 100 µM
C#CCN(N=O)C(=O)ON1C(=O)CCC1=O	> 100 µM
Cc1ccc(/C=C2\NC(=S)NC2=O)cc1	> 100 µM
CC(C)=NOC(=O)CNC(=O)C(Cc1ccccc1)NC(=O)C(C)NC(=O)OC(C)(C)C (stereo not drawn)	> 100 µM
O=c1c2c(-c3ccccc3)c3ccccc3nc2cnn1-c1ccccc1	> 100 µM
c1ccc(-c2nc3n(c2-c2ccc4c(c2)OCO4)CCC3)nc1	> 17.5 µM
CN(Cc1ccc(F)cc1)c1ccc(CO)c(Cl)c1	> 59 µM

* * *

# System: COLO 205 colon
# measurement.description: NCI tumour cell line growth inhibition, 48 h
readout.label: TGI

molecule	readout.label	assay.result
CCC1=CCN(c2cc(C)ccn2)OC1c1ccccc1 (configuration not stated)	TGI	> 100 µM
C#CCN(N=O)C(=O)ON1C(=O)CCC1=O	TGI	> 100 µM
C1=Cc2nc1c(-c1ccccc1)c1ccc([nH]1)c(-c1ccccc1)c1nc(c(-c3ccccc3)c3ccc([nH]3)c2-c2ccccc2)C=C1	TGI	> 100 µM
CC1CC2(S(=O)(=O)c3ccccc3)ON1CC2S(=O)(=O)c1ccccc1 (configuration not stated)	TGI	> 100 µM
COC/N=C(\NC#N)NCOC	TGI	> 85.1 µM
O=C(NN1C(=O)C(Cl)C1c1cccc([N+](=O)[O-])c1)c1ccccc1O (configuration not stated)	TGI	> 100 µM
O=[N+]([O-])c1ccc(C2ON=C(c3ccccc3)N2C23CC4CC(CC(C4)C2)C3)cc1 (configuration not stated)	TGI	> 10 µM

* * *

# System: NCI-H522 lung
# measurement.description: NCI tumour cell line growth inhibition, 48 h
Listing: TGI of selected molecules

molecule	target.system	TGI
FC(F)(F)c1ccc(-c2nn3ncccc3c2-c2ccnc(Nc3ccc4c(c3)OCCO4)n2)cc1	NCI-H522 lung	> 25 µM
O=c1nc2ccc([N+](=O)[O-])cc2[n+]([O-])[nH]1	NCI-H522 lung	> 100 µM
CC(=O)C(C)C(=O)N1C(=O)N(C)C2(C)N(C)C(=O)NC12C (stereo not given)	NCI-H522 lung	> 100 µM
O=[N+]([O-])c1ccc(C2ON=C(c3ccccc3)N2C23CC4CC(CC(C4)C2)C3)cc1 (stereo not given)	NCI-H522 lung	> 10 µM
CC1(C)CO[P@@](=S)(c2ccccn2)O[C@@H]1c1ccccc1	NCI-H522 lung	> 100 µM
COC(=O)C1Cc2c(OC)ccc(OC)c2C(O)C1C(=O)OC (stereo not given)	NCI-H522 lung	> 100 µM
COc1cc(-c2ccc(N=Nc3ccc4c(S(=O)(=O)O)cc(S(=O)(=O)O)c(N)c4c3O)c(OC)c2)ccc1N=Nc1ccc2c(S(=O)(=O)O)cc(S(=O)(=O)O)c(N)c2c1O	NCI-H522 lung	> 100 µM
Cc1cccc2[nH]c3c(c(O)cc4[nH]c5cccc(C)c5c(=O)c43)c(=O)c12	NCI-H522 lung	> 10 µM
COC(=O)C(C(=O)C(=O)Nc1ccc(C)cc1C)c1csc(-n2nc(-c3ccccc3)cc2-c2ccccc2)n1 (stereo not given)	NCI-H522 lung	> 100 µM
COC(=O)c1cc(=O)nc2cc3cccccc3n12	NCI-H522 lung	> 100 µM

Hey, just so you know, these numbers are from PubChem BioAssay (NCI).
